# System: K-562 leukemia
# assay-notes: NCI tumour cell line growth inhibition, 48 h
Recorded TGI for the following molecules

| molecule | TGI |
| --- | --- |
| CCOC(=O)[C@H](C)OC(=O)[C@@](C)(NC(=O)c1ccccc1C(=O)OC)[C@@H]1NC=C(C(=O)OC)CS1 | > 100 µM |
| Cn1cnnc1Sc1c([N+](=O)[O-])ncn1C | > 100 µM |
| COC1(OC)CCCc2c1no[n+]2[O-] | > 100 µM |
| C=CN1C(=O)[C@H](Oc2ccccc2)[C@@H]1c1ccccc1 | > 100 µM |
| CCOC1c2cc(C(C)C)c(O)c(O)c2[C@@]23CCCC(C)(C)C2C1OC3=O (stereo partly specified) | > 100 µM |
| Cc1cccc2c1Sc1ccccc1C2NC(=O)CCN(C)C (stereo unspecified) | > 100 µM |
| Cn1c(=O)c(Oc2ccc(F)cc2)cc2cnc(NC3CCOCC3)nc21 | > 25 µM |
| CS/C(=C(\S)c1ccccc1)c1ccccc1 | > 100 µM |
| COc1ccc(-c2nnc(N3CCN(C(=O)CN4CCN(c5ccccc5)CC4)CC3)nc2-c2ccc(OC)cc2)cc1 | > 100 µM |
| Oc1ccc(Nc2c3ccccc3nc3occ(Cl)c23)cc1 | 53.1 µM |
| Cc1ccc(Cl)c2c(=O)c3ccc(N)cc3sc12 | 48.6 µM |

====

# Tested on: SNB-19 CNS
# assay-notes: NCI tumour cell line growth inhibition, 48 h
Recorded TGI for the following compounds

| compound | TGI |
| --- | --- |
| C=C(C)C1CCC2(C)CC1c1c(c(C)cc3c1[nH]c1ccccc13)O2 (stereo not given) | > 25 µM |
| CCN(CC)CCSc1c2ccccc2nc2c(OC)ccc(OC)c12 | > 100 µM |
| NCC(=O)Nc1ccc(S(=O)(=O)O)c2cc(S(=O)(=O)O)cc(S(=O)(=O)O)c12 | > 100 µM |
| O=C(CNS(=O)(=O)Cc1ccccc1)NNc1ccccc1 | > 100 µM |
| COC(=O)[C@@]1(C)/C(=N/NS(=O)(=O)c2ccc(C)cc2)CCC[C@@H]1C | > 100 µM |

====

Recorded TGI for the following molecules
# System: KM20L2 colon
# assay-notes: NCI tumour cell line growth inhibition, 48 h

| molecule | TGI |
| --- | --- |
| COc1ccc(OC)c(/C=C(/C#N)c2ccccc2)c1 | > 100 µM |
| C[C@]12CCC(=O)C=C1CC[C@@H]1C2CC[C@]2(C)Nc3[nH]ncc3CC12 (stereo partly drawn) | > 100 µM |
| C[N+](C)(C)CC1CCC/C1=N\OC(=O)c1ccccc1 (stereo not drawn) | > 100 µM |

====

Recorded TGI for the following compounds
# Tested on: A498 renal
# assay-notes: NCI tumour cell line growth inhibition, 48 h

| compound | TGI |
| --- | --- |
| C=CN1C(=O)[C@H](Oc2ccccc2)[C@@H]1c1ccccc1 | > 100 µM |
| O=C1C=C(NCCOCCO)C(=O)c2c(O)ccc(O)c21 | > 100 µM |
| C[C@]12CCC(=O)C=C1CC[C@@H]1C2CC[C@]2(C)Nc3[nH]ncc3CC12 (stereo partly specified) | > 100 µM |
| CCN(Cc1ccc(F)cc1)c1ccc(CO)c(Br)c1 | 0.136 µM |
| CC1CN=C(N(C(=O)Nc2ccc(Cl)c(Cl)c2)c2ccccc2)S1 (stereo unspecified) | > 100 µM |
| C#Cc1nc(Nc2cc(C)[nH]n2)c2ccccc2n1 | 0.3 µM |

Where do the numbers come from? From PubChem BioAssay (NCI).
